These entries and their values trace back to the supplement of paper PMC9694430.

tested on: LOC_OS01G52050-cb004; assay: thermal shift delta Tm vs DMSO control; higher = stronger stabilization (binding); settings: 12.5 µM; protein concentration 2 µM;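 note: purified Escherichia coli-expressed rice kinase domain construct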
Sequence (as listed by the source): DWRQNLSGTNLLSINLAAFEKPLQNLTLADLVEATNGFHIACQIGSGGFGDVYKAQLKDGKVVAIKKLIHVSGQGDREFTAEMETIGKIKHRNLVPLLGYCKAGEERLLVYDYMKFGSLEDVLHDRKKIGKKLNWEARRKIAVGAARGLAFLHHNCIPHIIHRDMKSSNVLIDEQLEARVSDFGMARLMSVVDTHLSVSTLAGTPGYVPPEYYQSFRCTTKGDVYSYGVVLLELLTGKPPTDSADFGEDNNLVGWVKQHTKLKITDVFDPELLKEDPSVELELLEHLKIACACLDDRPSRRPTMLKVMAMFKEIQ
thermal shift delta Tm below 1 °C gives -1; thermal shift delta Tm at or above it gives 1.

Input line: Exam item: decide whether the reported thermal shift delta Tm for CCc1cccc(CC)c1NC(=O)N1Cc2[nH]nc(NC(=O)c3ccc(N4CCN(C)CC4)cc3)c2C1 is at least 1 °C.
Output line: -1

Input line: Does Cc1cc(Nc2cc(N)ncn2)c(=O)n2c1C(=O)NC21CCCCC1 have a reported thermal shift delta Tm of at least 1 °C?
Output line: -1

Input line: Decide: thermal shift delta Tm of O=C(Nc1ccc(OC(F)(F)F)cc1)c1sccc1NCc1ccnc2ccccc12 >= 1 °C?
Output line: 1

Input line: Can Cc1cnc(NC(=O)Nc2cc(Br)c(C)cc2OC[C@@H]2CNCCO2)cn1 be said to have thermal shift delta Tm at or above 1 °C?
Output line: 1

Input line: Could you please find out whether Cc1n[nH]c2ncc(C(=O)N3CCC[C@H]3c3ccc(Cl)cc3)cc12 has thermal shift delta Tm that meets 1 °C or exceeds it?
Output line: 1

More entries:
Input line: Evaluate COc1cc(Nc2ncc(F)c(Nc3ccc4c(n3)NC(=O)C(C)(C)O4)n2)cc(OC)c1OC [R406 (free base)] : thermal shift delta Tm at minimum 1 °C?
Output line: 1

Input line: Hi, just wondering whether COC1(c2sc3c(N4CCOCC4)nc(-c4cnc(N)nc4)nc3c2C)COC1 shows thermal shift delta Tm of 1 °C or higher.
Output line: -1

Input line: Evaluate CC(C)S(=O)(=O)c1ccc2nccc(Nc3ccc4scnc4c3)c2c1 : thermal shift delta Tm at minimum 1 °C?
Output line: 1

Input line: Tell me whether thermal shift delta Tm is at least 1 °C here: OC(c1cc(-c2ccc(Cl)cc2)nc2ccccc12)C1CCCCN1 (stereo not drawn)
Output line: -1

Input line: hey, is thermal shift delta Tm for this one >= 1 °C? CCCNC(=O)c1cn2ncnc(Nc3cc(C(=O)NC4CC4)ccc3C)c2c1C
Output line: -1

Input line: State whether the measured thermal shift delta Tm reaches 1 °C, counting equality as reaching it, for CCc1nc(C(N)=O)c(Nc2ccc(N3CCC(N4CCN(C)CC4)CC3)c(OC)c2)nc1NC1CCOCC1
Output line: 1

Input line: Could you verify whether the entry CC[C@@H]1C(=O)N(C)c2cnc(Nc3ccc(C(=O)N[C@H]4CC[C@H](N5CCN(CC6CC6)CC5)CC4)cc3OC)nc2N1C(C)C shows thermal shift delta Tm of no less than 1 °C?
Output line: -1

Input line: Form field: thermal shift delta Tm at least 1 °C? Entry: Cc1ncc(CO)c(CO)c1O
Output line: 1

Input line: Given the entry CCS(=O)(=O)c1cccc(-c2cc(C(=O)NC3CCN(C)CC3)c(C)c3[nH]c4ncc(C)cc4c23)c1 , answer whether its thermal shift delta Tm meets or surpasses 1 °C.
Output line: 1

Input line: Say whether O=C(O)c1ccc(-c2c[nH]c3ncc(-c4ccccc4)cc23)cc1C1CCCC1 shows thermal shift delta Tm of 1 °C or more.
Output line: 1

Input line: Evaluate O=C(c1ccc(Nc2nccc(-c3cc4ccccc4s3)n2)cc1)N1CCC(N2CCCC2)CC1 : thermal shift delta Tm at minimum 1 °C?
Output line: 1

Input line: Determine whether measured thermal shift delta Tm meets or exceeds 1 °C for CC[C@@H]1C(=O)N(C)c2cnc(Nc3ccc(C(=O)NC4CCN(C)CC4)cc3OC)nc2N1C1CCCC1
Output line: -1
